# Condition notes: 303.15 K; Liquid; Pycnometric method
Quantity kind: mass density (kg/m3)
Form entry: value (kg/m3) — number only.

[[record]]
structure_smiles_string = "c1ccccc1"
readout_number = 868.26

[[record]]
structure_smiles_string = "C1COCCO1"
readout_number = 1022.32

[[record]]
structure_smiles_string = "Cc1cc(C)cc(C)c1"
readout_number = 857.54

[[record]]
structure_smiles_string = "Cc1ccccc1C"
readout_number = 871.31

[[record]]
structure_smiles_string = "Cc1cccc(C)c1"
readout_number = 855.74

[[record]]
structure_smiles_string = "Cc1ccccc1"
readout_number = 857.64


(Q) Entry Cc1ccc(C)cc1 has what mass density?
(A) 852.47

* * *

mass density values by entry
# Condition notes: 313.15 K; Liquid; Pycnometric method
Lab book: enter the figure in kg/m3, no units written.

[[record]]
structure_smiles_string = "c1ccccc1"
unit_abbrev = "kg/m3"
readout_number = 857.56

[[record]]
structure_smiles_string = "Cc1cc(C)cc(C)c1"
unit_abbrev = "kg/m3"
readout_number = 849.71

[[record]]
structure_smiles_string = "Cc1ccc(C)cc1"
unit_abbrev = "kg/m3"
readout_number = 843.77


(Q) Can you look up the measured mass density of C1COCCO1 for me?
(A) 1011.05

(Q) Quick one: mass density for Cc1ccccc1C ?
(A) 862.79

(Q) Given the entry Cc1cccc(C)c1 , report its measured mass density.
(A) 847.17

(Q) Query: mass density; subject: Cc1ccccc1
(A) 848.21

* * *

# Protocol summary: refractive index (Na D-line) (dimensionless)
# Condition notes: 293.15 K; Liquid; Standard Abbe refractometry
Items are presented alongside their recorded refractive index.
No unit in the answer, only the number.

Here are 4 molecules together with their reported answers.
[[record]]
structure_smiles_string = "Cc1ccccc1"
readout_number = 1.497

[[record]]
structure_smiles_string = "Cc1cc(C)cc(C)c1"
readout_number = 1.4995

[[record]]
structure_smiles_string = "Cc1cccc(C)c1"
readout_number = 1.4974

[[record]]
structure_smiles_string = "c1ccccc1"
readout_number = 1.5011


(Q) For the molecule shown here, Cc1ccccc1C , give the reported refractive index.
(A) 1.5055

(Q) Quick one: refractive index of C1COCCO1 ?
(A) 1.4224

(Q) Given the molecule Cc1ccc(C)cc1 , what is its reported refractive index?
(A) 1.4959

* * *

# Condition notes: 318.15 K; Liquid; Pycnometric method
Numbers after ± are expanded uncertainties.
# key: entry, value: mass density
// unit must come after the numeric part

[[record]]
structure_smiles_string = "Cc1cc(C)cc(C)c1"
result = "845.8 ± 0.66 kg/m3"


Okay, next one:
(Q) # input molecule: C1COCCO1 ; wanted: its mass density
(A) 1005.42 ± 0.89 kg/m3

* * *

Measured refractive index of individual entries
# Protocol summary: refractive index (Na D-line) (dimensionless)
# Condition notes: 313.15 K; Liquid; Standard Abbe refractometry
Output: the number by itself.

[[record]]
structure_smiles_string = "C1COCCO1"
quantity_kind = "refractive index"
readout_number = 1.4139

[[record]]
structure_smiles_string = "Cc1ccccc1"
quantity_kind = "refractive index"
readout_number = 1.4855


Consider now this further compound.
(Q) Consider the compound Cc1cccc(C)c1 and give its measured refractive index.
(A) 1.487
